Source: ChEMBL document CHEMBL4689842

Test system: HEK-293T
EXPERIMENT NOTES: Incucyte cell viability with HEK293T; note: filed as whole numbers so only -1 and 0 and 1 occur
Type: toxicity, cell-based
CONDITIONS: human, 24 h, 10 µM, compound concentration 10 uM, replicate number 1, timepoint 24 hours
Exercise: for every item that follows, state its recorded Growth Rate.
Please reply with the number alone, leaving off any unit.

-- ask Short answer please: Growth Rate, HEK-293T, entry COc1ccc2c(c1)O[C@H](c1ccc(OC)c(OC)c1)C[C@@H]2NC(=O)C1(c2ccc3c(c2)OC(F)(F)O3)CC1
-- reply 0

-- ask Next: CN1CCN(Cc2ccc(-c3cnc4[nH]cc(-c5ccc6[nH]ccc6c5)c4c3)cc2)CC1
-- reply 0

-- ask Next: Cl.O=C(Cc1ccc(Cl)c(Cl)c1)N1CCCC[C@H]1CN1CCCC1
-- reply 0

-- ask Next: CCCCCNC(=N)N/N=C/c1c[nH]c2ccc(OC)cc12.O=C(O)/C=C\C(=O)O [TEGASEROD MALEATE]
-- reply 0

-- ask Next: CC(C)(O)c1cncc(-c2nc3ccc(F)cc3n2C2CC2)c1
-- reply 0

-- ask Next: Cc1c(P(=S)(c2ccccc2)c2ccccc2)n2ccccc2[n+]1C/C=C/c1ccccc1.[Br-]
-- reply 0

-- ask Next: COc1cc(C)c(Sc2cnc(NC(=O)c3ccc(CNC(C)C(C)(C)C)cc3)s2)cc1C(=O)N1CCN(C(C)=O)CC1 (stereo not drawn)
-- reply 0

-- ask Next: C=CC(=O)Nc1cc(-n2c(=O)ccc3cnc4ccc(-c5ccc(NS(C)(=O)=O)cc5)cc4c32)ccc1C
-- reply 0

-- ask Next: Oc1cccc(-c2nc(N3CCOCC3)c3oc4ncccc4c3n2)c1
-- reply 0

-- ask Next: CN(c1cc(C(F)(F)F)nc(OCCC(=O)O)n1)c1cccc2c1CCC2
-- reply 1

-- ask Next: O=C(N1CCS(=O)(=O)CC1)N1C[C@H](c2ccc(OC(F)(F)F)cc2)C[C@H](c2nc(C3CC3)no2)C1
-- reply 0

-- ask Next: C[C@H](NC(=O)Nc1cc2[nH]ncc2c(CO)n1)c1ccccn1
-- reply 1

-- ask Next: CC(Cc1ccc(O)c(O)c1)C(C)Cc1ccc(O)c(O)c1 (stereo not drawn) [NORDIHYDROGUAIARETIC ACID]
-- reply 0

-- ask Next: CCCc1cc(C)[nH]c(=O)c1CNC(=O)c1cc(-c2ccc(N3CCN(C(C)C)CC3)nc2)cc2c1cnn2C(C)C
-- reply 0

-- ask Next: CCOC(=O)c1ncn2c1CN(C)C(=O)c1cc(F)ccc1-2
-- reply 1

-- ask Next: CN1CCN(c2ccc(-c3cccc(CN4CCOCC4)c3)cc2NC(=O)c2c[nH]c(=O)cc2C(F)(F)F)CC1
-- reply 1

-- ask Next: Cc1cc2c(cc1C1(c3ccc(C(=O)O)cn3)CC1)C(C)(C)CCC2(C)C
-- reply 0

-- ask Next: CC(/C=C1\SC(=S)N(CCCC(=O)Nc2ccc(C(=O)O)c(O)c2)C1=O)=C\c1ccccc1
-- reply 0

* * *

Exercise: for every item that follows, state its recorded Population Healthy Nuclei (%).
Tested on: HEK-293T
EXPERIMENT NOTES: Multiplex assay against HEK293T
Type: toxicity, cell-based
CONDITIONS: human, 48 h, 1 µM, compound concentration 1 uM, replicate 1
Write it as a number; the unit % goes unstated.

-- ask Short answer please: Population Healthy Nuclei (%), HEK-293T, entry CCCCN(CC)c1nc(C)nc2c1c(C)cn2-c1c(C)cc(C)cc1C.Cl
-- reply 46

-- ask Next: CC(C)[C@H](CO)Nc1nc(Nc2cccc(Cl)c2)c2ncn(C(C)C)c2n1
-- reply 42

-- ask Next: C=CC(=O)Nc1cc(-n2c(=O)ccc3cnc4ccc(-c5ccc(NS(C)(=O)=O)cc5)cc4c32)ccc1C
-- reply 17

-- ask Next: N#Cc1cccc(C(=O)Nc2cc(-c3ccccc3)nn2-c2ccccc2)c1
-- reply 49

-- ask Next: CN1C(=O)[C@@H](NC(=O)c2cc3ccccc3[nH]2)N=C(c2ccccc2)c2ccccc21 [DEVAZEPIDE]
-- reply 28

-- ask Next: CN(c1cc(C(F)(F)F)nc(OCCC(=O)O)n1)c1cccc2c1CCC2
-- reply 36

-- ask Next: N#CCNC(=O)c1ccc(-c2ccnc(Nc3ccc(N4CCOCC4)cc3)n2)cc1
-- reply 67

-- ask Next: CC(/C=C1\SC(=S)N(CCCC(=O)Nc2ccc(C(=O)O)c(O)c2)C1=O)=C\c1ccccc1
-- reply 40

-- ask Next: Cl.NC[C@@H]1O[C@H](C23CC4CC(CC(C4)C2)C3)Cc2c1ccc(O)c2O
-- reply 80

-- ask Next: CC(Cc1ccc(O)c(O)c1)C(C)Cc1ccc(O)c(O)c1 (stereo not drawn) [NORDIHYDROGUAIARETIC ACID]
-- reply 68

-- ask Next: C[C@@H](Oc1cc(-n2cnc3ccc(CN4CCN(C)CC4)cc32)sc1C(N)=O)c1ccccc1C(F)(F)F
-- reply 18

-- ask Next: CC(C)c1cc(Nc2nc(N3CCC[C@H](N)C3)ncc2C(N)=O)cc(C(C)C)n1
-- reply 39

-- ask Next: Cc1ccc(S(=O)(=O)NC2c3ccccc3Oc3ccccc32)cc1
-- reply 46

-- ask Next: CCCc1cc(C)[nH]c(=O)c1CNC(=O)c1cc(-c2ccc(N3CCN(C(C)C)CC3)nc2)cc2c1cnn2C(C)C
-- reply 46

-- ask Next: Cc1c(P(=S)(c2ccccc2)c2ccccc2)n2ccccc2[n+]1C/C=C/c1ccccc1.[Br-]
-- reply 1

-- ask Next: Oc1cccc(-c2nc(N3CCOCC3)c3oc4ncccc4c3n2)c1
-- reply 4

-- ask Next: CCCCCNC(=N)N/N=C/c1c[nH]c2ccc(OC)cc12.O=C(O)/C=C\C(=O)O [TEGASEROD MALEATE]
-- reply 77

-- ask Next: CC(C)C[C@H](NC(=O)[C@H](Cc1ccccc1)NC(=O)CNC(=O)CNC(=O)[C@@H](N)Cc1ccc(O)cc1)C(=O)O
-- reply 32
